Every entry's value here was drawn from ChEMBL document CHEMBL1131286.

Target: Muscarinic acetylcholine receptor M1 (Homo sapiens)
Sequence (P11229 whole entry): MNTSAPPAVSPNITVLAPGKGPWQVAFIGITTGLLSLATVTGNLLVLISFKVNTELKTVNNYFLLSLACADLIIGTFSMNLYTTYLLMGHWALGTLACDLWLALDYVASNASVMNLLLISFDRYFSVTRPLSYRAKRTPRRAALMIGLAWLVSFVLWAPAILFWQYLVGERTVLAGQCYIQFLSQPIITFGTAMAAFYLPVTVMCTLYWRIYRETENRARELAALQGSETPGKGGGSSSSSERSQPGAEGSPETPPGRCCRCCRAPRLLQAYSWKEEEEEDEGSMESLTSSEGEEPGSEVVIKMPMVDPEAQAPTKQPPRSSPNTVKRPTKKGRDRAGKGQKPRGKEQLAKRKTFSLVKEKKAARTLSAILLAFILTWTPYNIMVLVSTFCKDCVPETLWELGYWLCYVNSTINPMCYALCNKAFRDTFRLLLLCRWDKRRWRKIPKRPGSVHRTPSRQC
Assay: biochemical
Assay type: cell-based, CHO
Description: Binding affinity of [3H]-QNB to CHO cells expressing human Muscarinic acetylcholine receptor M1
pIC50: −log10 of the molar value.
Classify by measured pIC50: TRUE if it is equal to or exceeds 5, FALSE if it is smaller.

>>> df
                                    compound                                    target  label
 0    CO/N=C1\CN2CCC1C2 (stereo unspecified)  Muscarinic acetylcholine receptor M1 (Homo sapiens)  FALSE
 1  Fc1ccccc1C#CCO/N=C1\CN2CCC1C2 (stereo unspecified)  Muscarinic acetylcholine receptor M1 (Homo sapiens)   TRUE
 2  Fc1ccc(C#CCO/N=C2\CN3CCC2C3)cc1 (stereo unspecified)  Muscarinic acetylcholine receptor M1 (Homo sapiens)   TRUE
 3  Clc1ccc(C#CCO/N=C2\CN3CCC2C3)cc1 (stereo unspecified)  Muscarinic acetylcholine receptor M1 (Homo sapiens)   TRUE
 4  Cc1ccc(C#CCO/N=C2\CN3CCC2C3)cc1 (stereo unspecified)  Muscarinic acetylcholine receptor M1 (Homo sapiens)  FALSE
 5  C(#Cc1ccsc1)CO/N=C1\CN2CCC1C2 (stereo unspecified)  Muscarinic acetylcholine receptor M1 (Homo sapiens)   TRUE
 6  C=CCO/N=C1\CN2CCC1C2 (stereo unspecified)  Muscarinic acetylcholine receptor M1 (Homo sapiens)   TRUE
 7  C#C/C(C)=C\CO/N=C1\CN2CCC1C2 (stereo unspecified)  Muscarinic acetylcholine receptor M1 (Homo sapiens)   TRUE
 8  C#C/C=C/CO/N=C1\CN2CCC1C2 (stereo unspecified)  Muscarinic acetylcholine receptor M1 (Homo sapiens)   TRUE
 9  Clc1cccc(C#CCO/N=C2\CN3CCC2C3)c1 (stereo unspecified)  Muscarinic acetylcholine receptor M1 (Homo sapiens)   TRUE
10  C#C/C(C)=C/CO/N=C1\CN2CCC1C2 (stereo unspecified)  Muscarinic acetylcholine receptor M1 (Homo sapiens)   TRUE
11  C/C(C#Cc1ccccc1)=C\CO/N=C1\CN2CCC1C2 (stereo unspecified)  Muscarinic acetylcholine receptor M1 (Homo sapiens)   TRUE
12  O=[N+]([O-])c1cccc(C#CCO/N=C2\CN3CCC2C3)c1 (stereo unspecified)  Muscarinic acetylcholine receptor M1 (Homo sapiens)  FALSE
13  C(#Cc1cccs1)CO/N=C1\CN2CCC1C2 (stereo unspecified)  Muscarinic acetylcholine receptor M1 (Homo sapiens)   TRUE
14  C#CCO/N=C1\CN2CCC1C2 (stereo unspecified)  Muscarinic acetylcholine receptor M1 (Homo sapiens)   TRUE
15  Clc1ccccc1C#CCO/N=C1\CN2CCC1C2 (stereo unspecified)  Muscarinic acetylcholine receptor M1 (Homo sapiens)   TRUE
16  COc1ccccc1C#CCO/N=C1\CN2CCC1C2 (stereo unspecified)  Muscarinic acetylcholine receptor M1 (Homo sapiens)  FALSE
